The values you see were collected from patent EP1243271A1.

Tested on: Guinea Pig Eosinophils
experiment_summary: Suppression of LTB4-induced chemotactic reaction of guinea pig eosinophils
Format: cell-based, guinea pigs
condition: Cavia porcellus, Eosinophil, test drug 1 × 10^-5 M, LTB4 10^-8 M, read-out: Suppression Rate (%)
Structures can show the parent of a compound that is named as a salt.
assay_metric: inhibition at 10 µM (%)

molecule: c1ccc(C(OC2CCN(CCCOc3ccc4ncnn4n3)CC2)c2ccccc2)cc1 [Reference Example B2, fumarate]
assayed_system: Guinea Pig Eosinophils
assay_metric: inhibition at 10 µM
measured_value: 54
//
molecule: CC(C)c1cc2ncnn2nc1OCCOCCN1CCN(C(c2ccccc2)c2ccccc2)CC1 [Reference Example B61]
assayed_system: Guinea Pig Eosinophils
assay_metric: inhibition at 10 µM
measured_value: 50
//
molecule: c1ccc(C(OC2CCN(CCCNc3ccc4ncnn4n3)CC2)c2ccccc2)cc1 [Reference Example B6]
assayed_system: Guinea Pig Eosinophils
assay_metric: inhibition at 10 µM
measured_value: 64
//
molecule: Cc1cc2ncnn2nc1OCCCCCCN1CCN(C(c2ccccc2)c2ccccc2)CC1 [Reference Example B51, dihydrochloride]
assayed_system: Guinea Pig Eosinophils
assay_metric: inhibition at 10 µM
measured_value: 80
//
molecule: CC(C)(C)c1cc2ncnn2nc1OCCOCCN1CCN(C(c2ccccc2)c2ccccc2)CC1 [Reference Example B62, dihydrochloride]
assayed_system: Guinea Pig Eosinophils
assay_metric: inhibition at 10 µM
measured_value: 52
//
molecule: Cc1nc2ccc(NCCCN3CCC(OC(c4ccccc4)c4ccccc4)CC3)nn2n1 [Reference Example B20]
assayed_system: Guinea Pig Eosinophils
assay_metric: inhibition at 10 µM
measured_value: 61
//
molecule: CC(C)c1cc2ncnn2nc1SCCOCCN1CCN(C(c2ccccc2)c2ccccc2)CC1 [Reference Example B59, dihydrochloride]
assayed_system: Guinea Pig Eosinophils
assay_metric: inhibition at 10 µM
measured_value: 54
//
molecule: COC(=O)c1nc2ccc(NCCCN3CCC(OC(c4ccccc4)c4ccccc4)CC3)nn2n1 [Reference Example B36]
assayed_system: Guinea Pig Eosinophils
assay_metric: inhibition at 10 µM
measured_value: 64
//
molecule: CC(C)(C)c1nc2ccc(NCCCN3CCC(OC(c4ccccc4)c4ccccc4)CC3)nn2n1 [Reference Example B34, fumarate]
assayed_system: Guinea Pig Eosinophils
assay_metric: inhibition at 10 µM
measured_value: 50
//
molecule: Cc1cc2ncnn2nc1OCCOCCN1CCN(C(c2ccccc2)c2ccccc2)CC1 [Reference Example B47]
assayed_system: Guinea Pig Eosinophils
assay_metric: inhibition at 10 µM
measured_value: 54
//
molecule: c1ccc(C(OC2CCN(CCCCCCNc3ccc4ncnn4n3)CC2)c2ccccc2)cc1 [Reference Example B35]
assayed_system: Guinea Pig Eosinophils
assay_metric: inhibition at 10 µM
measured_value: 52
